So I've got IC50 readings for Sodium-dependent serotonin transporter (Homo sapiens, UniProt P31645), take a look.
Report the value in nM with no unit label.

CNC[C@@H](O)[C@H](c1cccc(Cl)c1)n1ccc2ccccc21	554
CNCC[C@H](c1cccc(F)c1)n1ccc2ccccc21	14
CNC[C@@H](O)[C@H](c1cccc(C)c1)n1ccc2ccccc21	377

[Q] Value wanted: IC50 (Sodium-dependent serotonin transporter (Homo sapiens, UniProt P31645)) of entry CNCC[C@H](c1ccccc1)n1ccc2ccccc21
[A] 491

[Q] Value wanted: IC50 (Sodium-dependent serotonin transporter (Homo sapiens, UniProt P31645)) of entry CNC[C@@H](O)[C@H](c1cccc(F)c1)n1ccc2cccc(Br)c21
[A] 113

[Q] Value wanted: IC50 (Sodium-dependent serotonin transporter (Homo sapiens, UniProt P31645)) of entry CNC[C@@H](O)[C@H](c1ccc(C)cc1)n1ccc2ccccc21
[A] 398

[Q] Value wanted: IC50 (Sodium-dependent serotonin transporter (Homo sapiens, UniProt P31645)) of entry CNC[C@@H](O)[C@H](c1cccc(F)c1)n1ccc2ccc(F)cc21
[A] 626

[Q] Value wanted: IC50 (Sodium-dependent serotonin transporter (Homo sapiens, UniProt P31645)) of entry CNC[C@@H](O)[C@H](c1cccc(F)c1)n1ccc2cccc(Cl)c21
[A] 48

[Q] Value wanted: IC50 (Sodium-dependent serotonin transporter (Homo sapiens, UniProt P31645)) of entry CNC[C@@H](O)[C@H](c1cccc(C(F)(F)F)c1)n1ccc2ccccc21
[A] 2180

[Q] Value wanted: IC50 (Sodium-dependent serotonin transporter (Homo sapiens, UniProt P31645)) of entry CNC[C@@H](O)[C@H](c1cccc(F)c1)n1cc(C)c2ccccc21
[A] 343

[Q] Value wanted: IC50 (Sodium-dependent serotonin transporter (Homo sapiens, UniProt P31645)) of entry CNC[C@@H](O)[C@H](c1cccc(F)c1)n1ccc2cccc(F)c21
[A] 175

----------
So I've got pIC50 readings for Sodium-dependent serotonin transporter (Homo sapiens, UniProt P31645), take a look.
In plain terms, pIC50 is the concentration in mol/L turned into minus its base-10 logarithm.

These solved cases illustrate the format of a correct answer.
CNC[C@@H](O)[C@H](c1cccc(OC)c1)n1ccc2ccccc21	6.05
CNC[C@@H](O)[C@H](c1cccc(F)c1)n1ccc2c(Cl)cccc21	6.66

[Q] Item CNC[C@@H](O)[C@H](c1ccccc1C)n1ccc2ccccc21 has what recorded pIC50?
[A] 6.58

[Q] Item CNC[C@@H](O)[C@H](c1cccc(F)c1)n1ccc2cc(Cl)ccc21 has what recorded pIC50?
[A] 7.10

----------
# System Under Test: Sodium-dependent serotonin transporter (Homo sapiens, UniProt P31645)
# Sequence (P31645 whole entry): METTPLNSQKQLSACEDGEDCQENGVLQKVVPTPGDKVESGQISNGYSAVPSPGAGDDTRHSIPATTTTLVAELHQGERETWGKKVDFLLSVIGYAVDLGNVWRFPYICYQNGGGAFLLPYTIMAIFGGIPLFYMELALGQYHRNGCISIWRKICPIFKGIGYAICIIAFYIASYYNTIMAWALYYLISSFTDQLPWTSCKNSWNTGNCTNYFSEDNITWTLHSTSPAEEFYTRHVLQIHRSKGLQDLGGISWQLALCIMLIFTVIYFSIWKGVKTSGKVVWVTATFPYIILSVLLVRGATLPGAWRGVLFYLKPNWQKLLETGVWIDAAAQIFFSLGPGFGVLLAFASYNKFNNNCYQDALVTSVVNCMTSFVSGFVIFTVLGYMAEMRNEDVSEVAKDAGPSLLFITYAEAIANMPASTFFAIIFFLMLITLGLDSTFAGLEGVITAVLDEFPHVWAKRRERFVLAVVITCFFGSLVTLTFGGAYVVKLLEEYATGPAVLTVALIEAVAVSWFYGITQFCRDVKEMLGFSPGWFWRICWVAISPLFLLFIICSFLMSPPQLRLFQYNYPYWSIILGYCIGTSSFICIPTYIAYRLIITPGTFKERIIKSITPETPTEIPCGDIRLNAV
pIC50: −log10 of the molar value.
Label yes (1) when pIC50 is at or above 7; otherwise label no (0).

As a guide, the following entries are already answered.
CNC[C@@H](O)[C@H](c1cccc(F)c1)n1ccc2cc(Br)ccc21	yes (1)
CNC[C@@H](O)[C@H](c1cccc(F)c1)n1ccc2c(C)cccc21	no (0)
CNC[C@@H](O)[C@H](c1ccc(Cl)cc1)n1ccc2ccccc21	no (0)

[Q] Tell me whether pIC50 is at least 7 here: CNC[C@@H](O)[C@H](c1cccc(F)c1)n1ccc2ccc(Br)cc21
[A] no (0)

----------
# Measurement Protocol: Oral bioavailability in rat at 10 mg/kg
# Format: ADME, organism-based
# Test Context: in vivo
Assay Endpoint: bioavailability
Quote the value and follow it with the unit of measurement.

[Q] Item CNC[C@@H](O)[C@H](c1cccc(F)c1)n1cc(C)c2ccccc21 has what recorded bioavailability?
[A] 6%

----------
So I've got pIC50 readings for Sodium-dependent noradrenaline transporter (Homo sapiens, UniProt P23975), take a look.
In plain terms, pIC50 is the concentration in mol/L turned into minus its base-10 logarithm.

These solved cases illustrate the format of a correct answer.
CNC[C@@H](O)[C@H](c1ccc(F)cc1)n1ccc2ccccc21	7.08
CNC[C@@H](O)[C@H](c1cccc(F)c1)n1ccc2cccc(Cl)c21	7.68
CNC[C@@H](O)[C@H](c1cccc(F)c1)n1ccc2c(F)cccc21	7.80
CNC[C@@H](O)[C@H](c1cccc(F)c1)n1ccc2cc(Br)ccc21	7.22
CNC[C@@H](O)[C@H](c1cccc(F)c1)n1ccc2c(Cl)cccc21	7.19

[Q] Value wanted: pIC50 (Sodium-dependent noradrenaline transporter (Homo sapiens, UniProt P23975)) of entry CNC[C@@H](O)[C@H](c1cccc(F)c1)n1ccc2ccc(Cl)cc21
[A] 7.04

[Q] Value wanted: pIC50 (Sodium-dependent noradrenaline transporter (Homo sapiens, UniProt P23975)) of entry CNC[C@@H](O)[C@H](c1cccc(F)c1)n1ccc2cc(Cl)ccc21
[A] 7.22

[Q] Value wanted: pIC50 (Sodium-dependent noradrenaline transporter (Homo sapiens, UniProt P23975)) of entry CNC[C@@H](O)[C@H](c1cccc(Br)c1)n1ccc2ccccc21
[A] 7.85

[Q] Value wanted: pIC50 (Sodium-dependent noradrenaline transporter (Homo sapiens, UniProt P23975)) of entry CNC[C@@H](O)[C@H](c1ccccc1Cl)n1ccc2ccccc21
[A] 6.52

[Q] Value wanted: pIC50 (Sodium-dependent noradrenaline transporter (Homo sapiens, UniProt P23975)) of entry CNC[C@@H](O)[C@H](c1cccc(F)c1)n1ccc2cc(C)ccc21
[A] 7.68

[Q] Value wanted: pIC50 (Sodium-dependent noradrenaline transporter (Homo sapiens, UniProt P23975)) of entry CNC[C@@H](O)[C@H](c1cccc(OC)c1)n1ccc2ccccc21
[A] 6.95

[Q] Value wanted: pIC50 (Sodium-dependent noradrenaline transporter (Homo sapiens, UniProt P23975)) of entry CNC[C@@H](O)[C@H](c1cccc(F)c1)n1ccc2ccc(F)cc21
[A] 7.70

----------
Ratio IC50 overview
# Species on record: Homo sapiens
# Measurement Protocol: Selectivity ratio, IC50 for human SERT to IC50 for human NET
Answer as a number with no unit attached.

These solved cases illustrate the format of a correct answer.
CNC[C@@H](O)[C@H](c1cccc(F)c1)n1ccc2ccccc21	40
CNCC[C@H](c1ccccc1)n1ccc2ccccc21	14
CNC[C@@H](O)[C@H](c1cccc(F)c1)n1ccc2ccc(Br)cc21	8

[Q] Item CNC[C@@H](O)[C@H](c1cccc(Br)c1)n1ccc2ccccc21 has what recorded Ratio IC50?
[A] 39

[Q] Item CNC[C@@H](O)[C@H](c1cccc(Cl)c1)n1ccc2ccccc21 has what recorded Ratio IC50?
[A] 34

[Q] Item CNC[C@@H](O)[C@H](c1ccc(C)cc1)n1ccc2ccccc21 has what recorded Ratio IC50?
[A] 3

----------
Ratio IC50 overview
# Species: Homo sapiens
# Measurement Protocol: Selectivity ratio, IC50 for human SERT to IC50 for human NET
Answer as a number with no unit attached.

CNC[C@@H](O)[C@H](c1cccc(F)c1)n1ccc2c(Cl)cccc21	3
CNC[C@@H](O)[C@H](c1cccc(F)c1)n1ccc2cc(C)ccc21	2
CNC[C@@H](O)[C@H](c1ccccc1F)n1ccc2ccccc21	5
CNC[C@@H](O)[C@H](c1cccc(F)c1)n1ccc2cccc(C)c21	29

[Q] Item CNC[C@@H](O)[C@H](c1cccc(F)c1)n1ccc2cccc(F)c21 has what recorded Ratio IC50?
[A] 25

----------
# Measurement Protocol: Plasma concentration in rat at 10 mg/kg, po after 8 hrs
# Type: ADME, organism-based
# Parameters: dose 10 mg/kg, route oral
Assay Endpoint: concentration at 8 h (nM)
Report the value in nM with no unit label.

[Q] Item CNC[C@@H](O)[C@H](c1cccc(F)c1)n1cc(C)c2ccccc21 has what recorded concentration at 8 h?
[A] 40

----------
# Measurement Protocol: Ratio of AUC in brain to AUC in plasma in rat at 10 mg/kg, po and 2 mg/kg, iv
# Assay type: ADME, organism-based
# Test Context: read-out: Ratio AUC
Assay Endpoint: Kp
Answer as a number with no unit attached.

[Q] Item CNC[C@@H](O)[C@H](c1cccc(F)c1)n1cc(C)c2ccccc21 has what recorded Kp?
[A] 3.5

----------
# Species on record: Homo sapiens
# Measurement Protocol: Selectivity ratio, IC50 for human SERT to IC50 for human NET
Ratio IC50 overview
Answer as a number with no unit attached.

CNC[C@@H](O)[C@H](c1cccc(F)c1)n1ccc2cc(F)ccc21	4
CNC[C@@H](O)[C@H](c1cccc(F)c1)n1ccc2c(C)cccc21	15
CNC[C@@H](O)[C@H](c1cccc(C(F)(F)F)c1)n1ccc2ccccc21	40
CNC[C@@H](O)[C@H](c1cccc(OC)c1)n1ccc2ccccc21	8
CNC[C@@H](O)[C@H](c1ccc(F)cc1)n1ccc2ccccc21	16

[Q] Item CNC[C@@H](O)[C@H](c1cccc(F)c1)n1ccc2cccc(Br)c21 has what recorded Ratio IC50?
[A] 5

[Q] Item CNC[C@@H](O)[C@H](c1cccc(F)c1)n1ccc2c(Br)cccc21 has what recorded Ratio IC50?
[A] 4

[Q] Item CNC[C@@H](O)[C@H](c1cccc(F)c1)n1ccc2cc(Cl)ccc21 has what recorded Ratio IC50?
[A] 1

[Q] Item CCc1cn([C@@H](c2cccc(F)c2)[C@H](O)CNC)c2ccccc12 has what recorded Ratio IC50?
[A] 83
